All values here come from the Deep4Chem optical property database.

Assay: solvent given as SMILES
Settings: in ClC(Cl)Cl
endpoint.name: absorption maximum (nm)
The figure you give is taken to be in nm; do not add the unit.

Examples from the recorded data:
# compound, units.symbol, absorption maximum
measured = [
    ("C/C(=N\\Nc1ccc(C#N)cc1)c1cccc(/C(C)=N/Nc2ccc(C#N)cc2)c1", "nm", 353),
    ("c1cc2ccc3[nH]c4ccc5cccc6c(c1)c2c3c4c56", "nm", 425),
    ("CCCCCCN1C(=O)c2cccc3c(-c4ccc(-c5ccc6c7c(cccc57)C(=O)N(CCCCCC)C6=O)s4)ccc(c23)C1=O", "nm", 395),
    ("O=C1c2ccccc2NC(c2ccccc2)N1Cc1ccccc1 (centres undefined)", "nm", 336),
    ("CCN(CC)/C(C)=N\\c1ccc2c3c(cccc13)C(=O)c1ccccc1-2", "nm", 467),
]

Given item `CC(C)(C)c1cc2ccc3cc(C(C)(C)C)cc4c3c2c(c1)c(=O)n1c4nc2c3cc(C(C)(C)C)cc4ccc5cc(C(C)(C)C)cc(c5c43)c21` , the value recorded as its absorption maximum is 401

Entry `N#C/C(=C\c1cn(-c2ccccc2)nc1-c1ccccc1)c1nc2ccccc2s1` — recorded absorption maximum = 383

Lookup result for `O=C1OC(c2ccccc2)=N/C1=C\c1ccc(N(c2ccc(/C=C3\N=C(c4ccccc4)OC3=O)cc2)c2ccc(/C=C3/N=C(c4ccccc4)OC3=O)cc2)cc1` ; measured absorption maximum: 509.5

GET /value?item= `COC(=O)c1ccc(-c2nc3ccc(N(C)C)cc3s2)cc1` &field=absorption maximum returns 395
